The values you see were collected from ChEMBL document CHEMBL1157924.

Listing: pIC50 of selected compounds
# Test Target: Bifunctional epoxide hydrolase 2 (Homo sapiens)
# Sequence (P34913 whole entry): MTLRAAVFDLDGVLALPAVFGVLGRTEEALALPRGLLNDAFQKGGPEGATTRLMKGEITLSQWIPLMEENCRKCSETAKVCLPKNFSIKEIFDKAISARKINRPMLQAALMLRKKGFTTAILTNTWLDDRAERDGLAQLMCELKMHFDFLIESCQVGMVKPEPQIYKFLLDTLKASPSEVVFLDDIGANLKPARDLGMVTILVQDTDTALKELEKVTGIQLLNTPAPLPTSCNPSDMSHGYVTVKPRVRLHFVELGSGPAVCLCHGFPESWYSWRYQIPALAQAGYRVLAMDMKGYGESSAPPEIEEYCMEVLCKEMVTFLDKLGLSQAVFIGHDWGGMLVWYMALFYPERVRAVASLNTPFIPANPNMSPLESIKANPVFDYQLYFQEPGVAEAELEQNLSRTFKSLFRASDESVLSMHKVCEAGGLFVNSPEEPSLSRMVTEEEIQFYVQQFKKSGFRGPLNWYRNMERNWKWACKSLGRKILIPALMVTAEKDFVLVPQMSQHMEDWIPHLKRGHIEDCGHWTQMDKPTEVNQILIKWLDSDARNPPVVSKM
# Test Details: Inhibition of soluble epoxide hydrolase by fluorescence assay
Quick note: pIC50 means taking -log10 of the concentration in moles per liter.

Smiles Entry | pIC50
O=C(Nc1ccc(C(F)(F)F)cc1)Nc1cccc(S(=O)(=O)NCCN2CCOCC2)c1 | 9.00
O=C(Nc1ccc(C(=O)N2CCOCC2)cc1)Nc1ccc(C(F)(F)F)cc1 | 8.30

[in] Param item = O=C(Nc1ccc(C(F)(F)F)cc1)Nc1ccc(S(=O)(=O)N2CCOCC2)cc1 ; retrieve measured pIC50.
[out] 9.00

[in] Param item = O=C(Nc1ccc(Cl)cc1)Nc1cccc(C(=O)NCCN2CCOCC2)c1 ; retrieve measured pIC50.
[out] 6.89

[in] Param item = O=C(Nc1ccc(Cl)cc1)Nc1ccc(F)c(C(=O)NCCN2CCOCC2)c1 ; retrieve measured pIC50.
[out] 7.42

[in] Param item = O=C(Nc1ccc(C(=O)c2ccc(C(=O)O)cc2)cc1)Nc1ccc(C(F)(F)F)cc1 ; retrieve measured pIC50.
[out] 7.70

[in] Param item = O=C(Nc1ccc(C(F)(F)F)cc1)Nc1cccc(S(=O)(=O)N2CCOCC2)c1 ; retrieve measured pIC50.
[out] 9.00

[in] Param item = O=C(Nc1ccccc1)Nc1cccc(S(=O)(=O)CCCN2CCOCC2)c1 ; retrieve measured pIC50.
[out] 7.00

[in] Param item = O=C(O)CCCNC(=O)c1ccc(NC(=O)Nc2ccc(C(F)(F)F)cc2)cc1 ; retrieve measured pIC50.
[out] 7.72

[in] Param item = O=C(Nc1ccc(Cl)cc1)Nc1cccc(C(=O)N2CCC(N3CCOCC3)CC2)c1 ; retrieve measured pIC50.
[out] 7.33

====

# Test Target: Bifunctional epoxide hydrolase 2 (Homo sapiens)
# Test Details: Inhibition of soluble epoxide hydrolase by fluorescence assay
Listing: IC50 of selected molecules
Give the value in nM but do not write nM after it.

Smiles Entry | Test Target | IC50 / nM
O=C(O)CNC(=O)c1ccc(NC(=O)NC23CC4CC(CC(C4)C2)C3)cc1 | Bifunctional epoxide hydrolase 2 (Homo sapiens) | 490
O=C(Nc1ccc(C(=O)NCCN2CCOCC2)cc1)NC12CC3CC(CC(C3)C1)C2 | Bifunctional epoxide hydrolase 2 (Homo sapiens) | 3

[in] Param item = O=C(Nc1ccc(C(F)(F)F)cc1)Nc1cccc(C(=O)NCCN2CCOCC2)c1 ; retrieve measured IC50.
[out] 22

[in] Param item = O=C(Nc1ccc(C(F)(F)F)cc1)Nc1ccc(F)c(C(=O)N2CCOCC2)c1 ; retrieve measured IC50.
[out] 8

[in] Param item = O=C(Nc1ccc(C(=O)NCC(=O)N2CCOCC2)cc1)Nc1ccc(C(F)(F)F)cc1 ; retrieve measured IC50.
[out] 3

[in] Param item = O=C(Nc1ccc(OC(F)(F)F)cc1)Nc1ccc(C(=O)N2CCOCC2)cc1 ; retrieve measured IC50.
[out] 4

[in] Param item = O=C(O)CCCNC(=O)c1cccc(NC(=O)Nc2ccc(C(F)(F)F)cc2)c1 ; retrieve measured IC50.
[out] 120

[in] Param item = O=C(Nc1ccc(C(F)(F)F)cc1)Nc1cccc(C(=O)c2ccc(C(=O)O)cc2)c1 ; retrieve measured IC50.
[out] 27

====

Listing: log10 of IC50 of selected molecules
# Test Target: Bifunctional epoxide hydrolase 2 (Homo sapiens, UniProt P34913)
# Sequence (P34913 whole entry): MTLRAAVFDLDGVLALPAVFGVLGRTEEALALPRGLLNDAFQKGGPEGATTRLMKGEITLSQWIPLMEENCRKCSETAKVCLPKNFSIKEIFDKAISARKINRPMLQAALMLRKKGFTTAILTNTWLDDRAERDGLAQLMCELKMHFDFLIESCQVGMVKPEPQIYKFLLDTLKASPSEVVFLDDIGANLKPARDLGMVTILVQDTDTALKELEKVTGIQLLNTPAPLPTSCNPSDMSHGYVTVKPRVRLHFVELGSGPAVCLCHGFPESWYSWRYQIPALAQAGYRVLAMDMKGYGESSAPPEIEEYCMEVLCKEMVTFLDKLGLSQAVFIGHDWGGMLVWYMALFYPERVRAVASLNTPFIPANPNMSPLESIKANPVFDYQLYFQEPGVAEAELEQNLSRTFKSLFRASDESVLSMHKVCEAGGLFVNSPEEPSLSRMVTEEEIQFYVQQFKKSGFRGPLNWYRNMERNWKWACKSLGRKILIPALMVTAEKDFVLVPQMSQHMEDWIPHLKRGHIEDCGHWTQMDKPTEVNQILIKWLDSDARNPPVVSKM
# Test Details: Inhibition of soluble epoxide hydrolase by fluorescence assay
// do not treat as linear: log10 of IC50, unit nM

Smiles Entry | Property Label | Value
O=C(Nc1ccc(C(=O)Nc2cccnc2)cc1)Nc1ccc(C(F)(F)F)cc1 | log10 of IC50 | 0.90
O=C(Nc1ccc(C(=O)N2CCNCC2)cc1)NC12CC3CC(CC(C3)C1)C2 | log10 of IC50 | 1.08
O=C(Nc1cccc(C(=O)NCCN2CCOCC2)c1)NC12CC3CC(CC(C3)C1)C2 | log10 of IC50 | 1.79
O=C(O)COCCNC(=O)c1cccc(NC(=O)NC23CC4CC(CC(C4)C2)C3)c1 | log10 of IC50 | 2.11

[in] Param item = CN(CC(=O)O)C(=O)c1cccc(NC(=O)NC23CC4CC(CC(C4)C2)C3)c1 ; retrieve measured log10 of IC50.
[out] 2.36

====

# Test Target: Bifunctional epoxide hydrolase 2 (Homo sapiens, UniProt P34913)
# Sequence (P34913 whole entry): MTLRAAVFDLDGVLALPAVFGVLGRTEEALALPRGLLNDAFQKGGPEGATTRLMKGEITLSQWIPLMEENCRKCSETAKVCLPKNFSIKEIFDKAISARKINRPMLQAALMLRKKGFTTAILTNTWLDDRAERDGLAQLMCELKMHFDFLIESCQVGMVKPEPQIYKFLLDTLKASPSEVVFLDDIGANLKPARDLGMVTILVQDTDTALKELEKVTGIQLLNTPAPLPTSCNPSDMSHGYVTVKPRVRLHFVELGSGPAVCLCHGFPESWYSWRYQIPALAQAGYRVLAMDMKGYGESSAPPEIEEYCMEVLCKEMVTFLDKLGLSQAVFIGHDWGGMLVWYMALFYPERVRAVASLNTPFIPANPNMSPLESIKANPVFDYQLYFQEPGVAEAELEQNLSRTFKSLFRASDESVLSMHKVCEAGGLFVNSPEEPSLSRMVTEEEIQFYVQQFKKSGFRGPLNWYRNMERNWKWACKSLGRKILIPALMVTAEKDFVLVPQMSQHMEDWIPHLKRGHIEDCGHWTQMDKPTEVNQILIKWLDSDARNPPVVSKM
# Test Details: Inhibition of soluble epoxide hydrolase by fluorescence assay
pIC50: −log10 of the molar value.
Could you label it YES if measured pIC50 is 7 or higher, and NO otherwise?

Solved cases (2 shown):
Smiles Entry | Label
O=C(Nc1ccc(C(=O)NCCN2CCCC2)cc1)Nc1ccc(C(F)(F)F)cc1 | YES
O=C(Nc1ccc(Cl)cc1)Nc1ccc(C(=O)N2CCOCC2)c(F)c1 | YES

[in] Tell me whether pIC50 is at least 7 here: O=C(Nc1ccc(C2CCCCC2)cc1)Nc1cccc(C(=O)NCCN2CCOCC2)c1
[out] NO

[in] Tell me whether pIC50 is at least 7 here: CN1CCN(C(=O)c2ccc(NC(=O)Nc3ccc(OC(F)(F)F)cc3)cc2)CC1
[out] YES

====

# Test Target: Bifunctional epoxide hydrolase 2 (Homo sapiens, UniProt P34913)
# Sequence (P34913 whole entry): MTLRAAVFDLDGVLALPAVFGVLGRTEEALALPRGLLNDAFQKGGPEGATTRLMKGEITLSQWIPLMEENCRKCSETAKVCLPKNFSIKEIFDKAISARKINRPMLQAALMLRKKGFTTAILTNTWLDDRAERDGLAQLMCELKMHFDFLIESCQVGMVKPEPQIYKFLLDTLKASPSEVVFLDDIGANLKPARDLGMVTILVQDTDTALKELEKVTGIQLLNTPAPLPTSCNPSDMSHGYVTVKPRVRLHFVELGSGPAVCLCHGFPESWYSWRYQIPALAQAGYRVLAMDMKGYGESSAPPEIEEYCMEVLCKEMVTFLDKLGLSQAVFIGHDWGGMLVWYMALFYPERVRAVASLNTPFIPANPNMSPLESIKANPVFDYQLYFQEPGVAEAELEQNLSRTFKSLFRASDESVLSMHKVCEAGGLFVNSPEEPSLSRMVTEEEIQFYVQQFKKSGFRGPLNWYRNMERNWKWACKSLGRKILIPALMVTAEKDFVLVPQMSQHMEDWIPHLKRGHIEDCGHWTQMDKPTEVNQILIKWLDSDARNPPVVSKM
# Test Details: Inhibition of soluble epoxide hydrolase by fluorescence assay
Listing: log10 IC50 of selected compounds
// do not treat as linear: log10 of IC50, unit nM

The cases that follow already have their log10 IC50 on record.
Smiles Entry | log10 IC50
O=C(Nc1ccccc1)Nc1ccc(S(=O)(=O)CCCN2CCOCC2)cc1 | 1.73
O=C(Nc1ccc(Cl)cc1)Nc1ccc(C(=O)N2CCC(N3CCOCC3)CC2)cc1 | 2.37
O=C(Nc1ccccc1)Nc1ccc(C(=O)N2CCOCC2)cc1 | 2.40

Switching to the query record.
[in] Param item = O=C(Nc1ccc(F)cc1)Nc1ccc(C(=O)NCCN2CCOCC2)cc1 ; retrieve measured log10 IC50.
[out] 2.15
